Target: GT1a R155K NS3/4A protease
Type: biochemical, Hepatitis C virus
Settings: fold change in Ki, R155K relative to WT

compound	Ki R155K (fold change)
C=C[C@@H]1C[C@]1(NC(=O)[C@@H]1C[C@@H](Oc2nc3cc(OC)ccc3nc2CC)CN1C(=O)[C@@H](NC(=O)OC(C)(C)C)C(C)(C)C)C(=O)NS(=O)(=O)C1(C)CC1 [Compound 10a]	0.9
C=C[C@@H]1C[C@]1(NC(=O)[C@@H]1C[C@@H](Oc2nc3cc(OC)ccc3nc2CC)CN1C(=O)[C@@H](NC(=O)OC1CCCC1)C(C)(C)C)C(=O)NS(=O)(=O)C1CC1 [Compound 11a]	1.5
C=C[C@@H]1C[C@]1(NC(=O)[C@@H]1C[C@@H](Oc2nc3cc(OC)ccc3nc2C(C)C)CN1C(=O)[C@@H](NC(=O)OC(C)(C)C)C(C)(C)C)C(=O)NS(=O)(=O)C1CC1	1.5
CCc1nc2ccc(OC)cc2nc1O[C@@H]1C[C@H]2C(=O)N[C@]3(C(=O)NS(=O)(=O)C4CC4)C[C@H]3/C=C\CCCCC[C@H](NC(=O)OC(C)(C)C)C(=O)N2C1	1.6
C=C[C@@H]1C[C@]1(NC(=O)[C@@H]1C[C@@H](Oc2nc3cc(OC)ccc3nc2CC)CN1C(=O)[C@@H](NC(=O)OC(C)(C)C)C(C)(C)C)C(=O)NS(=O)(=O)C1CC1	0.9

====

Molecular target: GT1a D168A NS3/4A protease
Type: biochemical, Hepatitis C virus
Details: fold change in Ki, D168A relative to WT
Protocol: For each assay, 2 nM of NS3/4A protease (GT1, D168A and GT3) was pre-incubated at room temperature for 1 h with increasing concentration of inhibitors in assay buffer [50 mM Tris, 5% glycerol, 10 mM DTT, 0.6 mM LDAO, and 4% dimethyl sulfoxide]. Inhibition assays were performed in nonbinding surface 96-well black half-area plates (Corning) in a reaction volume of 60 μt. […] Three independent data sets were collected for each inhibitor with each protease construct. […]
Listed next: entries and their corresponding Ki D168A (fold change).

compound	Ki D168A (fold change)
C=C[C@@H]1C[C@]1(NC(=O)[C@@H]1C[C@@H](Oc2nc3cc(OC)ccc3nc2C)CN1C(=O)[C@@H](NC(=O)OC1CCCC1)C(C)(C)C)C(=O)NS(=O)(=O)C1CC1 [Compound 11b]	16
C=C[C@@H]1C[C@]1(NC(=O)[C@@H]1C[C@@H](Oc2nc3cc(OC)ccc3nc2Cl)CN1C(=O)[C@@H](NC(=O)OC(C)(C)C)C(C)(C)C)C(=O)NS(=O)(=O)C1(C)CC1 [Compound 10d]	31
C=C[C@@H]1C[C@]1(NC(=O)[C@@H]1C[C@@H](Oc2nc3cc(OC)ccc3nc2Cl)CN1C(=O)[C@@H](NC(=O)OC1CCCC1)C(C)(C)C)C(=O)NS(=O)(=O)C1(C)CC1 [Compound 12d]	13
C=C[C@@H]1C[C@]1(NC(=O)[C@@H]1C[C@@H](Oc2nc3cc(OC)ccc3nc2C(C)C)CN1C(=O)[C@@H](NC(=O)OC1CCCC1)C(C)(C)C)C(=O)NS(=O)(=O)C1CC1 [Compound 11c]	58
C=C[C@@H]1C[C@]1(NC(=O)[C@@H]1C[C@@H](Oc2nc3cc(OC)ccc3nc2CC)CN1C(=O)[C@@H](NC(=O)OC1CCCC1)C(C)(C)C)C(=O)NS(=O)(=O)C1CC1 [Compound 11a]	36
C=C[C@@H]1C[C@]1(NC(=O)[C@@H]1C[C@@H](Oc2nc3cc(OC)ccc3nc2C(F)(F)F)CN1C(=O)[C@@H](NC(=O)OC1CCCC1)C(C)(C)C)C(=O)NS(=O)(=O)C1CC1 [Compound 11e]	21
